Provenance of the data: ChEMBL document CHEMBL4513216

Experiment: Toxicity liver stage against HepG2, at 10uM
Format: cell-based
Parameters: test concentration 10 uM, cell line HepG2-A16-CD81EGFP
Conditions: human, HepG2-A16-CD81EGFP cells; read-out: INHIBITION

compound	value.units	cytotoxicity at 10 µM
CC(c1nc(C2CC2)no1)N1CCN(Cc2cccc(F)c2F)CC1 (stereo not drawn)	%	-4.93
Cc1ncsc1CN1C[C@@H]2CC[C@H]1CN(Cc1ccccc1)C2	%	-14.1
NCC1CCCCN1C(=O)Cc1cccc(Cl)c1 (stereo not drawn)	%	-5.36
O=C(c1ccnc(N2CCOC(c3ccc(Cl)cc3)C2)c1)N1CCCC1 (stereo not drawn)	%	-1.8
CCN1C[C@H]2CCN(C(=O)NC3CCCC3)CC[C@H]2S1(=O)=O	%	-3.52
COc1ccccc1C(=O)N1CCNCC1C(N)=O (stereo not drawn)	%	1.96
CCNc1ncc(CN2CCOC(Cc3cccc(OC)c3)C2)cn1 (stereo not drawn)	%	0.583
O=C(c1ccco1)N1CCO[C@@H]2CN(c3ccccc3)CC[C@@H]2C1	%	-67.7
Cc1cc(-c2nn3c(C(C)C)nnc3s2)on1	%	0.9
O=C(NCc1ccco1)Nc1ccc2nc(N3CCOCC3)oc2c1	%	4.17
COCCC(=O)N1C[C@H]2CN(Cc3cccc(C)c3)C(=O)[C@H]2C1	%	2.05
CNc1nc2cn(Cc3ccc(Cl)cc3)c(=O)c-2c[nH]1	%	8.93
Cc1noc([C@@H]2CCO[C@@H]3CCN(Cc4cccs4)C[C@@H]32)n1	%	-74.6
COc1cc(C)c(NC(=O)CCn2cccc2)cc1OC	%	1.61
c1ccc(COC2CCN(c3cncc(-n4cccn4)n3)CC2)cc1	%	-9.18
CC(C)c1nc(C(=O)N2CCOCC2CC(=O)c2ccco2)c[nH]1 (stereo not drawn)	%	0.769
CC(=O)N1N=C(c2ccco2)OC1C(=O)N(C)CCc1ccccc1 (stereo not drawn)	%	-0.0253
CN1C(=O)C2(NC(=O)c3ccccc3O2)c2ccccc21 (stereo not drawn)	%	-7.65
c1csc(CN2CC(c3nc(-c4cnccn4)no3)C2)c1	%	-8.28
COc1cccc2cc(CNC(=O)N3CCCC(O)C3)oc12 (stereo not drawn)	%	-8.8
COCCN1CCN(Cc2noc(C3CC3)n2)CC1C (stereo not drawn)	%	1.43
CN(Cc1csc(-c2cccs2)n1)C(=O)CCn1ccc(=O)[nH]c1=O	%	4.71
CSCCC(=O)N1CCCC(c2nccn2Cc2ccncc2)C1 (stereo not drawn)	%	9.33
COCCN(Cc1ccccc1)C(=O)c1csc(-c2nnc[nH]2)n1	%	4.9
CN1CCN(Cc2nnc(C3CCN(C(CO)CO)CC3)n2C)CC1	%	2.52
O=C(Nc1nnn[nH]1)c1ccc(I)c(F)c1	%	-2.56
Cc1nc(-c2ccncc2)nc(N(C)CCc2ccncc2)c1C	%	11.6
Cc1ccc(N2CCN(C(=O)[C@@H]3CCC(=O)N3)CC2=O)cc1	%	-4.18
CCn1ncc(S(=O)(=O)NC(C)c2cc(OC)ccc2OC)c1C (stereo not drawn)	%	-4.48
CC(C)OCc1noc(C2CCCOC2)n1 (stereo not drawn)	%	5.31
CC1CCCN(C(=O)c2occc2COc2cccc(C#N)c2)C1 (stereo not drawn)	%	4.57
O=c1n(CCSCc2ccccc2Cl)nc2ccccn12	%	-7.68
O=C(NCc1ccccc1CN1CCOCC1)c1ccc(Br)cc1F	%	12.3
O=C(NCCCn1cncn1)c1ccc(-c2ccccc2)[nH]c1=O	%	-4.86
CC(C(N)=O)N(C)CCCc1cc(-c2ccccc2)no1 (stereo not drawn)	%	-5.01
O=C(CC1=CSC2=NCCN12)N1CCCC(CCc2cccc(F)c2)C1 (stereo not drawn)	%	5.21
CCN(CC)C(=O)c1nnsc1-c1ccc(C)cc1	%	3.14
COCCCNC(=O)CCn1ncc2c(Cl)cccc21	%	7.72
Cc1nc(CN2CCCC(N(C)c3cnc4ccccc4n3)C2)no1 (stereo not drawn)	%	-14.6
CC1(C)Cc2ccc(C(=O)NC3CCOCC3)c(O)c2O1	%	-7.92
CCc1ccsc1C(=O)N1CCCC(c2noc(C)n2)C1 (stereo not drawn)	%	3.77
O=C(C(c1ccccc1)S(=O)(=O)c1ccccc1)N1CCCCC1 (stereo not drawn)	%	-6.01
Cc1nn(C)c(C)c1CC(C)NC(=O)NCc1ccn(C(C)C)n1 (stereo not drawn)	%	-1.54
Cc1nc(C)n(CC2CCCN2CC(=O)NCCc2ccccc2)n1 (stereo not drawn)	%	-16.5
COC(=O)C1CCN(C(=O)c2nnc3ccc(C)cc3n2)CC1	%	11.7
Cc1ccccc1C(CNC(=O)CSc1nnc(N)s1)N(C)C (stereo not drawn)	%	12
Cc1ccccc1CN(CCN(C)C)Cc1ccc(O)c(C(=O)O)c1	%	0.935
COCCOc1ccc(CNc2nc3ccccc3nc2N)cn1	%	33.9
